Exercise: state measured inhibition at 100 µM for each of the compounds provided.
- target: aldose reductase enzyme obtained from calf lens (Bos taurus)
- Construct: partially purified aldose reductase enzyme obtained from calf lens; from tissue; host or cells: calf lens
- test-name: Aldose reductase inhibitory activity (partially purified calf lens enzyme)
- Type: biochemical
- condition-context: 10^-4 M, * = average of 2 or 3 tests (Examples 2, 5, 6, 7)
Answers are plain numbers, in %.

COc1cccc2c3c(ccc12)C1(CCO3)NC(=O)NC1=O (stereo not shown)    94
O=C1NC(=O)C2(CCOc3c2cc(Cl)c2ccccc32)N1 (stereo not shown)    78
O=C1NC(=O)C2(CCCc3c2ccc2ccccc32)N1 (stereo not shown)    86
O=C1NC(=O)C2(CCOc3ccc4ccccc4c32)N1 (stereo not shown)    78
O=C1NC(=O)C2(CCOc3c2ccc2ccccc32)N1 (stereo not shown)    72
O=C1NC(=O)C2(CCSc3c2ccc2ccccc32)N1 (stereo not shown)    100
O=C1NC(=O)C2(CCCc3ccc4ccccc4c32)N1 (stereo not shown)    60
O=C1NC(=O)C2(CCCc3ccc4cc5ccccc5cc4c32)N1 (stereo not shown)    26

Would you mind giving inhibition at 100 µM for every compound in the list below?
1. O=C1NC(=O)C2(CCSc3ccc4ccccc4c32)N1 (stereo not shown)
2. O=C1NC(=O)C2(CCc3cccc4cccc2c34)N1 (stereo not shown)

Response line:
1: 59; 2: 71
